# Assayed Target: PSMA (Homo sapiens)
# Sequence (Q04609 whole entry): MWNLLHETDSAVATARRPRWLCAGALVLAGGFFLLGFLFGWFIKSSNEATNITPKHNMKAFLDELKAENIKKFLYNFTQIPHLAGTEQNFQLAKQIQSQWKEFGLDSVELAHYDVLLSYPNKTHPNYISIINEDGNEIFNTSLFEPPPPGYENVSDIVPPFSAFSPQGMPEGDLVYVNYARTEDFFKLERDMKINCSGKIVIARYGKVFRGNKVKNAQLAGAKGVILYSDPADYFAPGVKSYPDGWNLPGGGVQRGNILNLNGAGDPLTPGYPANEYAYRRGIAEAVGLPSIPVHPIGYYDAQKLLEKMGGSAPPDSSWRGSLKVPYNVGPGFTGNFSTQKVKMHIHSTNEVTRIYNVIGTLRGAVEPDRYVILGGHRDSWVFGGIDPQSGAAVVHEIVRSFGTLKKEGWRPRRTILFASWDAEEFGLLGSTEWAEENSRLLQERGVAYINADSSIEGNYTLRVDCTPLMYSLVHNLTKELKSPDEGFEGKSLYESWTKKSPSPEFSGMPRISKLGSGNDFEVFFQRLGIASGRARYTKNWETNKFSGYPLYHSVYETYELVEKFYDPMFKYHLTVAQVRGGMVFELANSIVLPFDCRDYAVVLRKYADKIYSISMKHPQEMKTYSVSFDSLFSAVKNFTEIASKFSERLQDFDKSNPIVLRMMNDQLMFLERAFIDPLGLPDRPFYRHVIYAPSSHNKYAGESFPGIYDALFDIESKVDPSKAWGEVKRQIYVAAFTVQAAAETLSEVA
pIC50: −log10 of the molar value.
Each entry below carries its recorded pIC50.
Readout Label: pIC50

• NCCCCCC(=O)NCCCCCC(=O)N[C@@H](CCC(=O)N[C@H](CCCOP(=O)(O)NC(CCC(=O)O)C(=O)O)C(=O)O)C(=O)O (stereo partly drawn) [compound 3] = 8.11
• O=C(O)CC[C@H](NP(=O)(O)OCCC[C@H](NC(=O)CC[C@H](NC(=O)CCCCCNC(=O)c1ccc(F)cc1)C(=O)O)C(=O)O)C(=O)O [compound 5] = 9.40
• O=C(O)CCC(NP(=O)(O)OCCC[C@@H](NC(=O)CC[C@H](NC(=O)CCCCCNC(=O)CCCCCNC(=O)c1ccc(F)cc1)C(=O)O)C(=O)O)C(=O)O (stereo partly drawn) [compound 6] = 9.05

The measurements presented in this section are drawn from paper PMC6016545.
